biological target: active p38 alpha enzyme (Upstate Biotechnology) (Homo sapiens, UniProt Q16539); construct: purchased Upstate Biotechnology; experiment: p38α biochemical assay (ATP turnover, luminescent detection, Cambrex PKlight); conditions: p38α kinase; Table 1 Biological Activity
Sequence (Q16539 whole entry): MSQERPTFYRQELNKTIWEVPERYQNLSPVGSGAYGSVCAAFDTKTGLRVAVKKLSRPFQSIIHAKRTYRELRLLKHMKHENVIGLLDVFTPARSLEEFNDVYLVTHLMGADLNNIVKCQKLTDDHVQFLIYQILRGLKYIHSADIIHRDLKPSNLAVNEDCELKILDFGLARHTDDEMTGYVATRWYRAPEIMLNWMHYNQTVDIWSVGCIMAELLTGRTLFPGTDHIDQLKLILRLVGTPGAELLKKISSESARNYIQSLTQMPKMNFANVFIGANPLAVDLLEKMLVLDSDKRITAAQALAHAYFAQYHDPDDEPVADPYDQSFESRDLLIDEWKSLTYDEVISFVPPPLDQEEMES
pIC50: −log10 of the molar value.
experimental-endpoint: pIC50

Ask: Please look at this compound and report its pIC50: CC(C)NC(=O)c1csc(-c2oc(CNCC3CCCO3)nc2-c2ccc(F)cc2)n1 (stereo not drawn)
Result: < 6.00

Ask: Please look at this compound and report its pIC50: CC(C)NC(=O)c1csc(-c2oc(CN(CCc3ccccc3)Cc3ccccc3)nc2-c2ccc(F)cc2)n1
Result: < 6.00

Ask: Please look at this compound and report its pIC50: COc1ccc(N2CCN(Cc3nc(-c4ccc(F)cc4)c(-c4nc(C(=O)NC(C)C)cs4)o3)CC2)cc1
Result: < 6.00

Ask: Please look at this compound and report its pIC50: Cc1nc(-c2ccc(F)cc2)c(-c2nc(C(=O)NC(C)CCCC(C)C)cs2)s1 (stereo not drawn)
Result: < 6.00

Ask: Please look at this compound and report its pIC50: Cc1ccc(CCNCc2onc(-c3ccc(F)cc3)c2-c2nc(C(=O)NC(C)C)cs2)cc1
Result: < 6.00

Ask: Please look at this compound and report its pIC50: CC(C)NC(=O)c1csc(-c2oc(CNCc3ccc(F)c(Cl)c3)nc2-c2ccc(F)cc2)n1
Result: < 6.00

Ask: Please look at this compound and report its pIC50: CC(C)NC(=O)c1csc(-c2oc(CN3CC(C)OC(C)C3)nc2-c2ccc(F)cc2)n1 (stereo not drawn)
Result: < 6.00

Ask: Please look at this compound and report its pIC50: Cc1nc(-c2ccc(F)cc2)c(-c2nc(C(=O)NCc3ccncc3)cs2)s1
Result: ≥ 6.00

Ask: Please look at this compound and report its pIC50: C=CCN(C(=O)c1csc(-c2sc(C)nc2-c2ccc(F)cc2)n1)C1CCCCC1
Result: < 6.00

Ask: Please look at this compound and report its pIC50: CCN(Cc1onc(-c2ccc(F)cc2)c1-c1nc(C(=O)NC(C)C)cs1)C(Cc1ccccc1)c1ccco1 (stereo not drawn)
Result: ≥ 6.00

Ask: Please look at this compound and report its pIC50: CC(C)NC(=O)c1csc(-c2oc(CN(CCO)CCO)nc2-c2ccc(F)cc2)n1
Result: < 6.00

Ask: Please look at this compound and report its pIC50: O=C(NCCc1ccc2c(c1)OCO2)c1csc(-c2c(-c3ccc(F)cc3)n[nH]c2C2CCNCC2)n1
Result: < 6.00

Ask: Please look at this compound and report its pIC50: CC(C)NC(=O)c1csc(-c2c(-c3ccc(F)cc3)n[nH]c2C2CCN(C(=O)c3cc(Cl)ccc3Cl)CC2)n1
Result: < 6.00

Ask: Please look at this compound and report its pIC50: CC(C)NC(=O)c1csc(-c2c(-c3ccc(F)cc3)n[nH]c2C2CCN(C(=O)c3ccc(Br)cc3)CC2)n1
Result: < 6.00

Ask: Please look at this compound and report its pIC50: CCOc1ccccc1NCc1onc(-c2ccc(F)cc2)c1-c1nc(C(=O)NC(C)C)cs1
Result: < 6.00

Ask: Please look at this compound and report its pIC50: COc1ccc(CCN(C)Cc2nc(-c3ccc(F)cc3)c(-c3nc(C(=O)NC(C)C)cs3)o2)cc1OC
Result: < 6.00

Ask: Please look at this compound and report its pIC50: CC(C)NC(=O)c1csc(-c2oc(CNc3ccc4c(c3)OCO4)nc2-c2ccc(F)cc2)n1
Result: < 6.00

Ask: Please look at this compound and report its pIC50: Cc1nc(-c2ccc(F)cc2)c(-c2nc(C(=O)N3CCN(c4ccc(O)cc4)CC3)cs2)s1
Result: < 6.00

Ask: Please look at this compound and report its pIC50: Cc1ccc([N+](=O)[O-])c(C(=O)N2CCC(c3[nH]nc(-c4ccc(F)cc4)c3-c3nc(C(=O)NC(C)C)cs3)CC2)c1
Result: < 6.00

Ask: Please look at this compound and report its pIC50: CC(C)NC(=O)c1csc(-c2oc(CNCCN3CCCCC3)nc2-c2ccc(F)cc2)n1
Result: < 6.00

Ask: Please look at this compound and report its pIC50: CC(C)NC(=O)c1csc(-c2c(-c3ccc(F)cc3)noc2CNN2CCOCC2)n1
Result: < 6.00

Ask: Please look at this compound and report its pIC50: Cc1nc(-c2ccc(F)cc2)c(-c2nc(C(=O)Nc3ccc(F)c(C(F)(F)F)c3)cs2)s1
Result: < 6.00

Ask: Please look at this compound and report its pIC50: Cc1nc(-c2ccc(F)cc2)c(-c2nc(C(=O)NC(C)Cc3ccncc3)cs2)s1 (stereo not drawn)
Result: < 6.00

Ask: Please look at this compound and report its pIC50: CC(C)NC(=O)c1csc(-c2c(-c3ccc(F)cc3)n[nH]c2C2CCN(C(=O)CCc3cccc(C(F)(F)F)c3)CC2)n1
Result: < 6.00

Ask: Please look at this compound and report its pIC50: O=C(NCc1ccc(C(F)(F)F)cc1)c1csc(-c2c(-c3ccc(F)cc3)n[nH]c2C2CCNCC2)n1
Result: < 6.00

Ask: Please look at this compound and report its pIC50: CCc1ccccc1NC(=O)c1csc(-c2sc(C)nc2-c2ccc(F)cc2)n1
Result: < 6.00

Ask: Please look at this compound and report its pIC50: CC(C)NC(=O)c1csc(-c2c(-c3ccc(F)cc3)noc2CNC(=O)c2ccccc2C(=O)c2ccc(F)cc2)n1
Result: < 6.00

Ask: Please look at this compound and report its pIC50: CC(C)NC(=O)c1csc(-c2c(-c3ccc(F)cc3)noc2CN2CCC(NC(=O)OC(C)(C)C)C2)n1 (stereo not drawn)
Result: < 6.00

Ask: Please look at this compound and report its pIC50: Cc1cc(C)c(NCc2onc(-c3ccc(F)cc3)c2-c2nc(C(=O)NC(C)C)cs2)c(C)c1
Result: < 6.00

Ask: Please look at this compound and report its pIC50: CCOc1ccccc1NCc1nc(-c2ccc(F)cc2)c(-c2nc(C(=O)NC(C)C)cs2)o1
Result: < 6.00

###

molecular target: active p38 alpha enzyme (Upstate Biotechnology) (Homo sapiens, UniProt Q16539); construct: purchased Upstate Biotechnology; experiment: p38α biochemical assay (ATP turnover, luminescent detection, Cambrex PKlight); conditions: p38α biochemical assay, Table 1 Biological Activity
pIC50: −log10 of the molar value.
Provide the recorded pIC50 for the entries that follow.

Ask: Check active p38 alpha enzyme (Upstate Biotechnology) (Homo sapiens, UniProt Q16539) data and give pIC50 for Cc1ccc(O)c(C(=O)NCc2nc(-c3ccc(F)cc3)c(-c3nc(C(=O)NC(C)C)cs3)o2)c1 [Example 145] .
Result: < 6.00

Ask: Check active p38 alpha enzyme (Upstate Biotechnology) (Homo sapiens, UniProt Q16539) data and give pIC50 for Cc1ccccc1C(=O)NCc1onc(-c2ccc(F)cc2)c1-c1nc(C(=O)NC(C)C)cs1 [Example 597] .
Result: < 6.00

Ask: Check active p38 alpha enzyme (Upstate Biotechnology) (Homo sapiens, UniProt Q16539) data and give pIC50 for Cc1[nH]nc(-c2ccc(F)cc2)c1-c1nc(C(=O)NCc2ccccn2)cs1 [Example 75] .
Result: ≥ 6.00

Ask: Check active p38 alpha enzyme (Upstate Biotechnology) (Homo sapiens, UniProt Q16539) data and give pIC50 for CC(C)NC(=O)c1csc(-c2oc(CNC(=O)C(F)(F)F)nc2-c2ccc(F)cc2)n1 [Example 108] .
Result: ≥ 6.00

Ask: Check active p38 alpha enzyme (Upstate Biotechnology) (Homo sapiens, UniProt Q16539) data and give pIC50 for Cc1onc(-c2ccccc2)c1-c1ccn(C(=O)NC(C)C)n1 [Example 1] .
Result: ≥ 6.00

Ask: Check active p38 alpha enzyme (Upstate Biotechnology) (Homo sapiens, UniProt Q16539) data and give pIC50 for CC(C)NC(=O)c1csc(-c2oc(CNC(=O)c3cc(F)c(F)cc3Cl)nc2-c2ccc(F)cc2)n1 [Example 258] .
Result: ≥ 6.00

Ask: Check active p38 alpha enzyme (Upstate Biotechnology) (Homo sapiens, UniProt Q16539) data and give pIC50 for CC(=O)c1ccccc1C(=O)NCc1onc(-c2ccc(F)cc2)c1-c1nc(C(=O)NC(C)C)cs1 [Example 645] .
Result: < 6.00

Ask: Check active p38 alpha enzyme (Upstate Biotechnology) (Homo sapiens, UniProt Q16539) data and give pIC50 for CC(C)NC(=O)c1csc(-c2oc(CN3CCN(C(=O)C(Cc4ccccc4)NC(=O)OC(C)(C)C)CC3)nc2-c2ccc(F)cc2)n1 (centres unmarked) [Example 568] .
Result: < 6.00

Ask: Check active p38 alpha enzyme (Upstate Biotechnology) (Homo sapiens, UniProt Q16539) data and give pIC50 for COc1ccc(/C=C/C(=O)N2CCN(Cc3nc(-c4ccc(F)cc4)c(-c4nc(C(=O)NC(C)C)cs4)o3)CC2)cc1O [Example 499] .
Result: ≥ 6.00

Ask: Check active p38 alpha enzyme (Upstate Biotechnology) (Homo sapiens, UniProt Q16539) data and give pIC50 for Cc1cc(C(=O)NCc2nc(-c3ccc(F)cc3)c(-c3nc(C(=O)NC(C)C)cs3)o2)cc(Cl)n1 [Example 192] .
Result: < 6.00

Ask: Check active p38 alpha enzyme (Upstate Biotechnology) (Homo sapiens, UniProt Q16539) data and give pIC50 for COc1cc(C(=O)NCc2nc(-c3ccc(F)cc3)c(-c3nc(C(=O)NC(C)C)cs3)o2)cc(Cl)n1 [Example 241] .
Result: < 6.00

Ask: Check active p38 alpha enzyme (Upstate Biotechnology) (Homo sapiens, UniProt Q16539) data and give pIC50 for CC(C)NC(=O)c1csc(-c2c(-c3ccc(F)cc3)noc2CNC(=O)c2cc3cc(Cl)ccc3o2)n1 [Example 739] .
Result: < 6.00

Ask: Check active p38 alpha enzyme (Upstate Biotechnology) (Homo sapiens, UniProt Q16539) data and give pIC50 for CCC(=O)C(=O)NCc1nc(-c2ccc(F)cc2)c(-c2nc(C(=O)NC(C)C)cs2)o1 [Example 102] .
Result: ≥ 6.00

Ask: Check active p38 alpha enzyme (Upstate Biotechnology) (Homo sapiens, UniProt Q16539) data and give pIC50 for COc1ccccc1/C=C/C(=O)NCc1onc(-c2ccc(F)cc2)c1-c1nc(C(=O)NC(C)C)cs1 [Example 680] .
Result: < 6.00
